All values here come from ChEMBL document CHEMBL1129724.

test system: HT-29; assay: Inhibition of glucuronosyltransferase activity in the human colon cancer cell line HT-29 at 5 uM concentration; type: cell-based; design: scale not given: the % may be the effect or the level left
Measured parameter: Activity (%)
Give bare numbers, in %.

CC(CCC(=O)O)[C@H]1CC[C@H]2[C@@H]3CC[C@@H]4C[C@@H](O)CC[C@]4(C)[C@H]3C[C@@H](O)[C@]12C (some centres not stated) | 46.4
CC(CCCOP(=O)(O)O)[C@H]1CC[C@H]2[C@@H]3CC[C@@H]4C[C@H](O)CC[C@]4(C)[C@H]3CC[C@]12C (some centres not stated) | 74

Give Activity for all molecules that follow.
1. CC(CCC(=O)O)[C@H]1CC[C@H]2[C@@H]3[C@@H](O)[C@H](O)[C@@H]4C[C@H](O)CC[C@]4(C)[C@H]3CC[C@]12C (some centres not stated)
2. CC(CCC(=O)O)[C@H]1CC[C@H]2[C@@H]3C(=O)C[C@@H]4C[C@H](O)CC[C@]4(C)[C@H]3CC[C@]12C (some centres not stated)

Data returned:
1. 78.5
2. 51.1

Give Activity for all molecules that follow.
1. CC(CCC(C(=O)O)C(=O)O)[C@H]1CC[C@H]2[C@@H]3CC[C@@H]4C[C@H](O)CC[C@]4(C)[C@H]3CC[C@]12C (some centres not stated)
2. C[C@@H](CCC(=O)O)[C@H]1CC[C@H]2[C@@H]3[C@H](O)[C@@H](O)[C@@H]4C[C@H](O)CC[C@]4(C)[C@H]3CC[C@]12C

Data returned:
74.3
100

Data request: Form field: reported Activity of CC(CCC(=O)O)[C@H]1CC[C@H]2[C@@H]3CC(=O)[C@@H]4C[C@H](O)CC[C@]4(C)[C@H]3CC[C@]12C (some centres not stated)
Data returned: 28.1
